This collection of values is drawn from patent US7220744B2.

Measured IC50 accompanies every entry in the list below.
Biological target: mGlyT-1b (Mus musculus, UniProt P28571)
Construct: host or cells: Flp-in-CHO cells (vendor and catalogue number are those of the host cell line)
Sequence (P28571 1-651 isoform P28571-2): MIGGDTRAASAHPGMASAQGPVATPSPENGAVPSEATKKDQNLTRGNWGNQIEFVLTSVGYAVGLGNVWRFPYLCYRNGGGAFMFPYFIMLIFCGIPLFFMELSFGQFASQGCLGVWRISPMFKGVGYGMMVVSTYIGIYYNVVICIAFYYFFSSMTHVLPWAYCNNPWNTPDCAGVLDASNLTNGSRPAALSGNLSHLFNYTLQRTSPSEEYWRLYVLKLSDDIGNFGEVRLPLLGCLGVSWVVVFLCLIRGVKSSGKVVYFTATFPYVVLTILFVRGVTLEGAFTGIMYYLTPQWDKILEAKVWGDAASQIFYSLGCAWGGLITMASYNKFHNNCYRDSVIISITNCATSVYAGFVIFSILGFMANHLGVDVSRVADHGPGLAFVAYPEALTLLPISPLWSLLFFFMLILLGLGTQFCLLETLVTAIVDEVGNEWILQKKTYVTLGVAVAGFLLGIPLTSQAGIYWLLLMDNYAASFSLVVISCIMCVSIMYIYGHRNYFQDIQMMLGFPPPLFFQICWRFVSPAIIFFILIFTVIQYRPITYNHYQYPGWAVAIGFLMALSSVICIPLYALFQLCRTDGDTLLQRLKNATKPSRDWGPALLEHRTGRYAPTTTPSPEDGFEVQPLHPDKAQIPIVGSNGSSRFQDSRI
Experiment: Glycine Uptake Inhibition Assay (mGlyT-1b)
Assay type: cell-based
Conditions: inhibition of [3H]-glycine uptake in Flp-in-CHO cells transfected with mGlyT-1b cDNA; 20 min preincubation at 22° C.; read-out: IC50 (μM) at GlyT-1

| molecule | IC50 [µM] |
| --- | --- |
| C[C@@H](Oc1ccc(S(C)(=O)=O)cc1C(=O)N1CCN(c2ncc(CC(F)(F)F)s2)CC1)C(F)(F)F [Example 71] | 0.069 |
| CC(Oc1ccc(S(C)(=O)=O)cc1C(=O)N1CCN(c2ncc(CC(F)(F)F)s2)CC1)C(F)(F)F (stereo not drawn) [Example 69] | 0.056 |
| Cc1nc(N2CCN(C(=O)c3cc(S(C)(=O)=O)ccc3O[C@H](C)C(F)(F)F)CC2)sc1C(F)(F)F [Example 81] | 0.044 |
| CC(C)COc1ccc(S(C)(=O)=O)cc1C(=O)N1CCN(c2ncc(C#N)s2)CC1 [Example 16] | 0.065 |
| C[C@H](Oc1ccc(S(C)(=O)=O)cc1C(=O)N1CCN(c2ncc(CC(F)(F)F)s2)CC1)C(F)(F)F [Example 70] | 0.057 |
| CCCCS(=O)(=O)c1cnc(N2CCN(C(=O)c3cc(S(C)(=O)=O)ccc3OCC(C)(C)C)CC2)s1 [Example 42] | 0.046 |
| CC(C)(C)COc1ccc(S(C)(=O)=O)cc1C(=O)N1CCN(c2ncc(S(=O)(=O)c3ccccc3)s2)CC1 [Example 29] | 0.017 |
| CCCCS(=O)(=O)c1cnc(N2CCN(C(=O)c3cc(S(C)(=O)=O)ccc3OC(C)C(F)(F)F)CC2)s1 (stereo not drawn) [Example 39] | 0.07 |
| CCS(=O)(=O)c1ccc(OC(C)C(F)(F)F)c(C(=O)N2CCN(c3ncc(C(F)(F)F)s3)CC2)c1 (stereo not drawn) [Example 74] | 0.031 |
| CC[C@@H](C)Oc1ccc(S(C)(=O)=O)cc1C(=O)N1CCN(c2ncc(C(F)(F)F)s2)CC1 [Example 77] | 0.1 |
| CC(C)COc1ccc(S(C)(=O)=O)cc1C(=O)N1CCN(c2ncc(S(=O)(=O)c3ccccc3)s2)CC1 [Example 31] | 0.024 |
| CNS(=O)(=O)c1ccc(OC2CCCC2)c(C(=O)N2CCN(c3nc(-c4ccccc4)ns3)CC2)c1 [Example 100] | 0.055 |
